Absorbance (450 nm) values, listed per item
Target: recombinant cynomolgus monkey CD3ε/δ heterodimer (cynomolgus monkey) (UniProt Q95LI5)
Sequence (Q95LI5 22-117, stated change not applied, chain 1 of 2): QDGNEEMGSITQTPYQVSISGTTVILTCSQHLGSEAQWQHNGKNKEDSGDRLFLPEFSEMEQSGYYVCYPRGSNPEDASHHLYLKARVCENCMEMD
Sequence (Q95LI8 22-105, stated change not applied, chain 2 of 2, further chain): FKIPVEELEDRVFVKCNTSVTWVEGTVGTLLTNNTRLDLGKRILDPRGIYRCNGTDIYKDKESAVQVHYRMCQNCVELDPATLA
Procedure Text: ELISA, coated CD3ε/δ
Write the number on its own, no unit after it.

Field: example entries. Status: answers known.
Binder	Absorbance (450 nm)
C07 (antibody, human IgG1, lambda, L234A L235A, V domains shown) VH: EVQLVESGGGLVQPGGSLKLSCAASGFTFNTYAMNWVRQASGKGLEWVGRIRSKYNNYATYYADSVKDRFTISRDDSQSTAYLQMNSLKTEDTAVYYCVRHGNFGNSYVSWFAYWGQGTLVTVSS VL: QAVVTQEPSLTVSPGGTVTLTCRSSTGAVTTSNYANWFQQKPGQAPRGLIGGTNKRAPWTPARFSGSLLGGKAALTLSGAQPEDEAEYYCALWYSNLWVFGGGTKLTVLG	2.6
A10 (antibody, human IgG1, lambda, L234A L235A, V domains shown) VH: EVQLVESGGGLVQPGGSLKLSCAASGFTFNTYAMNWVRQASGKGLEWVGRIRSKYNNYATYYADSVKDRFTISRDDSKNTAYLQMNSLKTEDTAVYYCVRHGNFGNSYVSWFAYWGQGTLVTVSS VL: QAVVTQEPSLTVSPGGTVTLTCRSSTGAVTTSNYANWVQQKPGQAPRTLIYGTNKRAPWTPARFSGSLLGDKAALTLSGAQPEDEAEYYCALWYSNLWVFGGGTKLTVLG	0.066
F16 (antibody, human IgG1, lambda, L234A L235A, V domains shown) VH: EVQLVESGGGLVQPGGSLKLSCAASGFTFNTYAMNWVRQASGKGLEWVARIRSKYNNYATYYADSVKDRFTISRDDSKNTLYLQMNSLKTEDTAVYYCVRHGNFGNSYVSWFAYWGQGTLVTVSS VL: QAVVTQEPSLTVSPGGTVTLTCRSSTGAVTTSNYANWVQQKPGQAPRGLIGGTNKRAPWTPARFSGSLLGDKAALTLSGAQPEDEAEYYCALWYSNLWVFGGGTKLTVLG	2.85
F04 (antibody, human IgG1, lambda, L234A L235A, V domains shown) VH: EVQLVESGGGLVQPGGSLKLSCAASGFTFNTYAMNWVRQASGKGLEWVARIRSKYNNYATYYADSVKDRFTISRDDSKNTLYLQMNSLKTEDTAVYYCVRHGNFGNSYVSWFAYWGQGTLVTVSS VL: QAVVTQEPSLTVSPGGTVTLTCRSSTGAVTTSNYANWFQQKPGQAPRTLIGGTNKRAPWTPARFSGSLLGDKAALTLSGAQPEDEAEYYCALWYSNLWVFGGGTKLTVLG	0.069
E03 (antibody, human IgG1, lambda, L234A L235A, V domains shown) VH: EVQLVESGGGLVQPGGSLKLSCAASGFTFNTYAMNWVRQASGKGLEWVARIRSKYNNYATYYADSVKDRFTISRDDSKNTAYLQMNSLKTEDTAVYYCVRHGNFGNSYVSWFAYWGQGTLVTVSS VL: QAVVTQEPSLTVSPGGTVTLTCRSSTGAVTTSNYANWFQQKPGQAPRTLIGGTNKRAPWTPARFSGSLLGGKAALTLSGAQPEDEAEYYCALWYSNLWVFGGGTKLTVLG	0.076

INPUT: Please look up its Absorbance (450 nm): H10 (antibody, human IgG1, lambda, L234A L235A, V domains shown) VH: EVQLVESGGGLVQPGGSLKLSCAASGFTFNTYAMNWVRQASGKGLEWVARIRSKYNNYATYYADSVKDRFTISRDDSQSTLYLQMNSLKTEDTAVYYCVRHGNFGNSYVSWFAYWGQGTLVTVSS VL: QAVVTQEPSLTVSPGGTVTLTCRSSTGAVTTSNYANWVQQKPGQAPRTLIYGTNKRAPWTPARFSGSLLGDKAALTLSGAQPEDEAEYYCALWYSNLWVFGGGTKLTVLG
OUTPUT: 0.077

INPUT: Please look up its Absorbance (450 nm): C15 (antibody, human IgG1, lambda, L234A L235A, V domains shown) VH: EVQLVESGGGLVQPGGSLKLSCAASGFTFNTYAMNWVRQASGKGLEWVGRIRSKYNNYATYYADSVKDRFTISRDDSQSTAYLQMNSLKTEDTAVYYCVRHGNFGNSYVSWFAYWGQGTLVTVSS VL: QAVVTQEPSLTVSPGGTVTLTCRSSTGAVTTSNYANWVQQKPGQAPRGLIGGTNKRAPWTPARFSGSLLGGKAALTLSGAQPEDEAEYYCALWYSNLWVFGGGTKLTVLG
OUTPUT: 2.81

INPUT: Please look up its Absorbance (450 nm): H11 (antibody, human IgG1, lambda, L234A L235A, V domains shown) VH: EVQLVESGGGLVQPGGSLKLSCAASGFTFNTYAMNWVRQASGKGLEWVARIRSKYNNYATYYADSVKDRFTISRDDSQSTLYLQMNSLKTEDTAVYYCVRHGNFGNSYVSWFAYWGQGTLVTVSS VL: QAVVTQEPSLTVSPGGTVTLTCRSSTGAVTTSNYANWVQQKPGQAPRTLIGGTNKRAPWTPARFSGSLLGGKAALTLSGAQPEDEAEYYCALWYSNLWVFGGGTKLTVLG
OUTPUT: 0.142

INPUT: Please look up its Absorbance (450 nm): E11 (antibody, human IgG1, lambda, L234A L235A, V domains shown) VH: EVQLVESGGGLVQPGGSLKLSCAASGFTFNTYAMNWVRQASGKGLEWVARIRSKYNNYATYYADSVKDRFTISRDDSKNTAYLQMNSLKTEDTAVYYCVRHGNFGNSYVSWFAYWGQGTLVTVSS VL: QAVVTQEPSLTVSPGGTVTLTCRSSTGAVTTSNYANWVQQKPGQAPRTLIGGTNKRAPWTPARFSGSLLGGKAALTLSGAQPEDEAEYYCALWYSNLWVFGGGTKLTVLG
OUTPUT: 0.075

INPUT: Please look up its Absorbance (450 nm): E02 (antibody, human IgG1, lambda, L234A L235A, V domains shown) VH: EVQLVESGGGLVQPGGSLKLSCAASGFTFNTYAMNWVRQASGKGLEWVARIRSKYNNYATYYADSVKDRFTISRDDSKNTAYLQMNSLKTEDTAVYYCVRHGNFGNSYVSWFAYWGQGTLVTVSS VL: QAVVTQEPSLTVSPGGTVTLTCRSSTGAVTTSNYANWFQQKPGQAPRTLIYGTNKRAPWTPARFSGSLLGDKAALTLSGAQPEDEAEYYCALWYSNLWVFGGGTKLTVLG
OUTPUT: 0.07
